The reported measurements were obtained from patent US6787546B2.

Experiment: Solubility in water
Format: physicochemical
Conditions: 25 °C
Protocol: The water solubility of the compound of the present invention was measured at 25° C. As the control compounds, (E)-4-(2-(2-(N-(4-methoxybenzenesulfonyl)amino)-phenyl)ethenyl)pyridine 1-oxide (Compound A) and (E)-4-(2-(2-(N-acetyl-N-(4-methoxy-benzenesulfonyl)amino)phenyl)ethenyl)pyridine 1-oxide (Compound B) were used.
READOUT TYPE: solubility

STRUCTURE SMILES STRING	REPORTED VALUE
COc1ccc(S(=O)(=O)Nc2ccccc2/C=C/c2cc[n+]([O-])cc2)cc1	29 µg/mL
